# Tested on: UACC-62 melanoma
# TEST DESCRIPTION: NCI tumour cell line growth inhibition, 48 h
TGI vs 20 µM: at or above is condition met, below is condition not met.

CN(C)CCNC(=O)c1cccc2c(=O)c3ccccc3oc12 : condition met
CC1(C)[C@@H]2CC[C@]1(C)[C@H](OC(=O)CSC#N)C2 : condition met

Determine whether this molecule has TGI no lower than 20 µM: COc1ccc2nc(N/N=C/c3sccc3C)cc(C)c2c1 condition met

Determine whether this molecule has TGI no lower than 20 µM: Cc1c(N2C(=O)C(Cl)C2/C=C/c2ccccc2)c(=O)n(-c2ccccc2)n1C (stereo unspecified) condition met

Decide: TGI of CC1=C2C(O)C(C(C)C(=O)N(C)C)CCC2(C)C=CC1=O (stereo unspecified) >= 20 µM? condition met

Check this molecule for TGI at or above 20 µM: N[C@@H]1CCN(c2c(F)cc3c(=O)c(C(=O)O)cn4c3c2Oc2c-4ccc3c2ccc2ccccc23)C1 condition met

Given the entry NC(CSC(c1ccccc1)(c1ccccc1)c1ccccc1)C(=O)NCC(=O)O (stereo unspecified) , answer whether its TGI meets or surpasses 20 µM. condition met

State whether the measured TGI reaches 20 µM, counting equality as reaching it, for CCN1C(=O)/C(=C/c2c(Cl)[nH]c3cc(C)c(OC)cc23)c2ccccc21 condition met

Can CC(=O)C1C(c2ccccc2)C2(C)OC(=O)C(C#N)C12C (stereo unspecified) be said to have TGI at or above 20 µM? condition met

hey, is TGI for this one >= 20 µM? COc1ccc2c(c1)/C(=C\c1c(Cl)[nH]c3cc(C)c(OC)cc13)C(=O)N2 condition not met

Could you tell me if the measured TGI of CC1(O)C(C)(O)C2(C)O[Te]3(OC12C)OC1(C)C(C)(O)C(C)(O)C1(C)O3 (stereo unspecified) reaches 20 µM or more? condition met

Does the reported TGI for CN(C)Cc1cc(C(F)(F)F)ccc1C(O)(c1ccccc1)c1ccccc1 fall at or above the 20 µM mark? condition met

Has COc1ccc2c(c1)NC1=C(C(=O)OC1)C2c1cc(OC)c(OC)c(OC)c1 (stereo unspecified) a recorded TGI greater than or equal to 20 µM? condition met

Is the recorded value of TGI equal to or greater than 20 µM for this molecule? OC(CC1CCCCN1)c1ccc2c(c1)oc1ccccc12 (stereo unspecified) condition met

Evaluate OC(CNc1ccccn1)c1ccccc1 (stereo unspecified) : TGI at minimum 20 µM? condition met

State whether the measured TGI reaches 20 µM, counting equality as reaching it, for Clc1ccc(CCN(CCc2ccc(Cl)c(Cl)c2)CCN2CCCC2)cc1Cl condition not met

Exam item: decide whether the reported TGI for Nc1n[nH]c2cccc(C#Cc3cccc(NC(=O)c4cccc(C(F)(F)F)c4)c3)c12 is at least 20 µM. condition not met

Please check the record C[C@]12CC=CC(=O)[C@@]1(C)CCC(=O)C2 and state if its TGI is at or above 20 µM. condition met

Does the molecule C=C1c2c(C)nn(-c3ccc(C#CCOC4OC(CO)C(O)C(O)C4O)cc3)c2N(C)C23C[C@H]1C1(C)c4c(C)nn(-c5ccc(C#CCOC6OC(CO)C(O)C(O)C6O)cc5)c4N(C)C(C)(C[C@H]12)C3 (stereo partly specified) have recorded TGI that is 20 µM or more? condition not met

Does TGI meet or surpass 20 µM for O=C(O)CCC1CCc2cccc(O)c2C1=O (stereo unspecified) ? condition met

Decide: is the reported value of TGI for COc1ccc(C=O)cc1O[Si](C)(C)C(C)(C)C equal to or greater than 20 µM? condition met
